For each entry below, report its chemotaxis index value.
- Tested on: RNAi-treated eri-1 (mg366) nematodes
- assay_info: RNAi screening of olfactory receptor genes: chemotaxis assay of RNAi-treated nematodes to odorants
- Assay type: in vivo, Caenorhabditis elegans
- test_context: srh-297 RNAi-treated nematodes; low concentration of attractant
Write the number on its own, no unit after it.

Ask: Form field: reported chemotaxis index of CC(C)CCO
Result: 0.42

Ask: How about CCC(C)=O ?
Result: 0.84

Ask: How about c1cnccn1 ?
Result: 0.29

Ask: How about Cc1nc(C)c(C)s1 ?
Result: 0.56

Ask: How about CCC(=O)C(C)=O ?
Result: 0.32

Ask: How about O=Cc1ccccc1 ?
Result: 0.63
